The following compounds are shown together with reported IC50 values.
- Experimental target: NIH-3T3 cells overexpressing human IGF-1R (Homo sapiens, UniProt P08069)
- Sequence (P08069 31-1367): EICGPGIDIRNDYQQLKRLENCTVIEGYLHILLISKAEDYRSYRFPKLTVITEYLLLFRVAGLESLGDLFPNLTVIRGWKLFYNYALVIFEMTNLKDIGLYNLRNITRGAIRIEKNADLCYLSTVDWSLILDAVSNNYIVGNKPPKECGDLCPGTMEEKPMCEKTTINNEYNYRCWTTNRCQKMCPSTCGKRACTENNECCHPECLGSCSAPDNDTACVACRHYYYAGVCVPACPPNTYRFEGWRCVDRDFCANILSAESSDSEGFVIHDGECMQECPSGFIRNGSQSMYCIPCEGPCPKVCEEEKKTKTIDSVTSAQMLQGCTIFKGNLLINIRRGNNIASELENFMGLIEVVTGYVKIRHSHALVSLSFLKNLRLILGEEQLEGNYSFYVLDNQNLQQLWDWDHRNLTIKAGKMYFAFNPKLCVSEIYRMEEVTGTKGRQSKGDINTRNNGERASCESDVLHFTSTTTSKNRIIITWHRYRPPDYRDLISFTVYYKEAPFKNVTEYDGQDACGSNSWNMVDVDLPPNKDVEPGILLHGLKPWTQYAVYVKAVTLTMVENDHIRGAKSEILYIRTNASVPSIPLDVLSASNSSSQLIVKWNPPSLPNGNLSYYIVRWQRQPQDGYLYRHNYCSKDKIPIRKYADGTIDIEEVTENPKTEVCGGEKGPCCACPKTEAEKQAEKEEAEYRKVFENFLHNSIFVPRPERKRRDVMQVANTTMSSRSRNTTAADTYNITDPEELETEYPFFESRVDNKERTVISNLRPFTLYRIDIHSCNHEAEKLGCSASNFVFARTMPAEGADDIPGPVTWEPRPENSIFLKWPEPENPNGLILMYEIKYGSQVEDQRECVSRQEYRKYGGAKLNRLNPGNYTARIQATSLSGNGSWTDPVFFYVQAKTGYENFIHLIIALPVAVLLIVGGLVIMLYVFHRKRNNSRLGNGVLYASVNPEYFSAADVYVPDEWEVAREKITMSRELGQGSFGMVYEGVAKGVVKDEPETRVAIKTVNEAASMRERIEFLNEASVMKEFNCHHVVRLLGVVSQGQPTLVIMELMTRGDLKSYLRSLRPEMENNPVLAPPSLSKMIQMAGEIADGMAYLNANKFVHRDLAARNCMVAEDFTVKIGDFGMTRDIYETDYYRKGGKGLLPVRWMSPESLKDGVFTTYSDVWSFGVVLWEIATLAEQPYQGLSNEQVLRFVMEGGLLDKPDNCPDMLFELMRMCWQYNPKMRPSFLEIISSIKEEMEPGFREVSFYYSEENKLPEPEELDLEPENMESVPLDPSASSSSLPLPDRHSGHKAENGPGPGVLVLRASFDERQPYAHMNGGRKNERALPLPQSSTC
- Measurement notes: IGF-1R cellular autophosphorylation (DELFIA)

Reference set (5 entries):
                                   compound         result
0  CCC(C)N1CCc2cc(OC)c(Nc3nc(Nc4cccc(F)c4C(=O)NC)c4cc[nH]c4n3)cc2C1 (centres unmarked)       > 0.5 µM
1  CNC(=O)c1c(F)cc(F)cc1Nc1nc(Nc2cc3c(cc2OC)CCN3C(=O)CN(C)C)nc2[nH]ccc12       < 0.1 µM
2  COc1cc(N2CCOC[C@@H]2C)ccc1Nc1nc(Nc2cccc(F)c2C(N)=O)c2cc[nH]c2n1  0.1 to 0.5 µM
3  COc1cc(N2CCN(C(C)C)CC2)ccc1Nc1nc(Nc2ccc(F)c(F)c2C(N)=O)c2cc[nH]c2n1  0.1 to 0.5 µM
4  CCc1cc(N2CCN(C(C)C)CC2)ccc1Nc1nc(Nc2cc(F)ccc2C(N)=O)c2cc[nH]c2n1  0.1 to 0.5 µM

Could you tell me which IC50 is on file for CNC(=O)c1c(F)cccc1Nc1nc(Nc2cc3c(cc2OC)CCCN3C(=O)[C@@H]2CCCN2C)nc2[nH]ccc12 ?
0.1 to 0.5 µM

Could you tell me which IC50 is on file for COc1cc2c(cc1Nc1nc(Nc3cc(F)cc(F)c3C(=O)NC(C)C)c3cc[nH]c3n1)N(C(=O)CN(C)C)CC2 ?
0.1 to 0.5 µM
